- PROCEDURE_SUMMARY: The drug is tested on Enterococcus faecalis strain: V583 for biotransformation. The drug concentrations were measured before and after a 12-h incubation by liquid-chromatography-coupled mass spectrometry (LC–MS)
- TEST_PARAMETERS: 2 µM

MOLECULE | Bacterial Biotransformation
CCCC(=O)Nc1ccc(OCC(O)CNC(C)C)c(C(C)=O)c1 (stereo unspecified) | Compound NOT metabolized
CCN(CC)CC#CCOC(=O)C(O)(c1ccccc1)C1CCCCC1.Cl (stereo unspecified) [OXYBUTYNIN CHLORIDE] | Compound metabolized
CN(C)CCc1c[nH]c2ccc(Cn3cncn3)cc12.O=C(O)c1ccccc1 [RIZATRIPTAN BENZOATE] | Compound NOT metabolized
CC(=O)Nc1ccc(OC(C)=O)cc1 [DIACETAMATE] | Compound metabolized
O=P(O)(O)O.c1ccc(CN(CC2=NCCN2)c2ccccc2)cc1 [ANTAZOLINE PHOSPHATE] | Compound NOT metabolized
COc1ccc2c3c1O[C@H]1C[C@@H](O)C=C[C@@]31CCN(C)C2 | Compound metabolized
Cc1ccc(S(=O)(=O)NC(=O)NN2CCCCCC2)cc1 [TOLAZAMIDE] | Compound NOT metabolized
O=C(O)CCC(=O)O.O=C(O[C@H]1CN2CCC1CC2)N1CCc2ccccc2[C@@H]1c1ccccc1 [SOLIFENACIN SUCCINATE] | Compound NOT metabolized
NC(=O)N1c2ccccc2CC(=O)c2ccccc21 [OXCARBAZEPINE] | Compound NOT metabolized
NC(CO)(CO)CO.O=C(c1ccccc1)c1ccc2n1CCC2C(=O)O (stereo unspecified) | Compound NOT metabolized
CCS(=O)(=O)CCn1c([N+](=O)[O-])cnc1C | Compound metabolized

====

- PROCEDURE_SUMMARY: The drug is tested on Escherichia coli strain: BW25113 for biotransformation. The drug concentrations were measured before and after a 12-h incubation by liquid-chromatography-coupled mass spectrometry (LC–MS)
- TEST_PARAMETERS: 2 µM

COMPOUND | Bacterial Biotransformation
CC(C)C[C@H]1C(=O)N2CCC[C@H]2[C@]2(O)O[C@](NC(=O)[C@@H]3C=C4c5cccc6[nH]c(Br)c(c56)C[C@H]4N(C)C3)(C(C)C)C(=O)N12.CS(=O)(=O)O [BROMOCRIPTINE MESYLATE] | Compound metabolized
CC(C)c1nc(CN(C)C(=O)N[C@H](C(=O)N[C@@H](Cc2ccccc2)C[C@H](O)[C@H](Cc2ccccc2)NC(=O)OCc2cncs2)C(C)C)cs1 [RITONAVIR] | Compound metabolized
CN1CCC[C@@H]1CCO[C@](C)(c1ccccc1)c1ccc(Cl)cc1.O=C(O)/C=C/C(=O)O [CLEMASTINE FUMARATE] | Compound metabolized

====

- PROCEDURE_SUMMARY: The drug is tested on Salmonella typhimurium strain: LT2 for biotransformation. The drug concentrations were measured before and after a 12-h incubation by liquid-chromatography-coupled mass spectrometry (LC–MS)
- TEST_PARAMETERS: salmonella enterica subsp. enterica, 2 µM

STRUCTURE_STRING | Bacterial Biotransformation
N#Cc1ccc2[nH]cc(CCCCN3CCN(c4ccc5oc(C(N)=O)cc5c4)CC3)c2c1 | Compound NOT metabolized
Nc1c2c(nc3ccccc13)CCCC2 | Compound NOT metabolized
Clc1cccc(Cl)c1N=C1NCCN1 | Compound NOT metabolized
